# System: MS2 coat protein
# experiment_summary: apparent KD of MS2 coat protein; designed switch direction (-1 OFF switch, 1 ON switch): 1; higher = weaker reporter binding
# settings: Eterna round: R95; input ligand: none
Mark TRUE for reported apparent KD of MS2 coat protein of 100 nM or greater; mark FALSE for anything smaller.

Hello, I need to know if GUAGCAUGCAGGCAGGAUAUUCAUAUUAAAACAUGAGGAUCACCCAUGUAGGCCAAAAGGCCUUGGGAGAAGGGCCACAUGCUAC [Xeonanis - 19] (puzzle: Same State 2) has measured apparent KD of MS2 coat protein not below 100 nM. Thanks! TRUE

Hello, I need to know if UCUUGGUUUUUGCUCGUUUUUUGUGUUGAACAUGAGGAUCACCCAUGUAUUGUACGGUCCGGUUUGAUAGUGGUCCG [JMF 15] (puzzle: Sensor for hsa-mir-208a) has measured apparent KD of MS2 coat protein not below 100 nM. Thanks! FALSE

Hello, I need to know if AAAACACAUGAGGAUCACCCAUGUACCAGGUACAUAGGAUAUCCAGGCGCCAGAUGGCGCGGAGAAGGAUGGAAAA [Xeveoned] (puzzle: Same State 1) has measured apparent KD of MS2 coat protein not below 100 nM. Thanks! TRUE

Hello, I need to know if AUUUAACAAGCUUUUUGCUCGUCUUAUAAACAUGAGGAUCACCCAUGUAAUAGCGUGAGAGUAAUUUUUUAAAUAAU [JMF 96] (puzzle: Sensor for hsa-mir-208a) has measured apparent KD of MS2 coat protein not below 100 nM. Thanks! FALSE

Hello, I need to know if AUUAAACAUGAGGAUCACCCAUGUCAACAAAGUCGAGGAUAUGGGCAAAUAAAAUAAGAACCAGAAGGCGAAUAUU [salish99_ss1_r3_080] (puzzle: Same State 1) has measured apparent KD of MS2 coat protein not below 100 nM. Thanks! TRUE

Hello, I need to know if AUUAAACAUGAGGAUCACCCAUGUCAACUAAGUCGAGGAUAUGGGCAAAUAAAAUAAGAACCAGAAGGCGAAUAAU [salish99_ss1_r3_074] (puzzle: Same State 1) has measured apparent KD of MS2 coat protein not below 100 nM. Thanks! TRUE

Hello, I need to know if AAUAUACAUGAGGAUCACCCAUGUUAGUAAAUGACAGGAUAUGGAAUAAAUAAAUAAUAACCAGAAGGGUCUAAUA [JMF's solution 2] (puzzle: Same State 1) has measured apparent KD of MS2 coat protein not below 100 nM. Thanks! FALSE

Hello, I need to know if UGUUGGUUUUUGCUCGUUUUUUGUGUUGAACAUGAGGAUCACCCAUGUAUUGUACAGUCCAGUUUGGUAAUGGUGCG [JR_SHM208A_Sub046] (puzzle: Sensor for hsa-mir-208a) has measured apparent KD of MS2 coat protein not below 100 nM. Thanks! FALSE

Hello, I need to know if UUAUCACAUGAGGAUCACCCAUGUUAUACUUUUUUAGGAUAUUUUAUGUAUGACCAAAUAAAAGAAGGAGGAAUAA [flagellum_key_01] (puzzle: Same State 1) has measured apparent KD of MS2 coat protein not below 100 nM. Thanks! FALSE

Hello, I need to know if AUUAAACAUGAGGAUCACCCAUGUCAACAAAGUCGAGGAUAUGGGCAUAUUAUCUUCUUUCCAGAAGGCGAAUAAU [salish99_ss1_r3_089] (puzzle: Same State 1) has measured apparent KD of MS2 coat protein not below 100 nM. Thanks! TRUE

Hello, I need to know if GACAAUCUAUCUGAGGAUAUCAUGAAUAAAACAUGAGGAUCACCCAUGUGCAGGAGAACUGCAAAUGAGAAGGCAGAUAGAUUGG [Mat - Same State 2 - Mod - D10] (puzzle: Same State 2) has measured apparent KD of MS2 coat protein not below 100 nM. Thanks! FALSE

Hello, I need to know if UCUUGGUUUUUGCUCGUUUUUUGUGUUGAACAUGAGGAUCACCCAUGUAUUAUACGGUCCGGUUUAGUAGUGGUCCA [JMF 78] (puzzle: Sensor for hsa-mir-208a) has measured apparent KD of MS2 coat protein not below 100 nM. Thanks! TRUE

Hello, I need to know if ACAAGCUUUUCUGCAUUGAAAGGUUGAUAACAUGAGGAUCACCCAUGUUUAUAUGAAAAUAAUGCUCCUCGUCUUAU [JR_SHM208A_Sub094] (puzzle: Sensor for hsa-mir-208a) has measured apparent KD of MS2 coat protein not below 100 nM. Thanks! FALSE

Hello, I need to know if GGAGCCGAUACUGAGGAUAUUCAUAUUAAAACAUGAGGAUCACCCAUGUAGGCCAGAAGGCCUUGGGAGAAGGCAGAUCGGCUCC [Biseusra - 4] (puzzle: Same State 2) has measured apparent KD of MS2 coat protein not below 100 nM. Thanks! TRUE

Hello, I need to know if AAGUGAUGGGUUAGUAACUGCUAGUAAGGACAUGAGGAUCACCCAUGUGAGUAACGAGCUUUUGCUCGUCUUAUAAA [JR_SHM208A_Sub020] (puzzle: Sensor for hsa-mir-208a) has measured apparent KD of MS2 coat protein not below 100 nM. Thanks! TRUE

Hello, I need to know if GGCAGGUGCAGGCUUGCUUGCACCUGGAAACAUGAGGAUCACCCAUGUUUGGGACAAGCUUUGCUCUUCGUCUUUUC [JL ViennaUCT Isusreraar mod 5] (puzzle: Sensor for hsa-mir-208a) has measured apparent KD of MS2 coat protein not below 100 nM. Thanks! FALSE

Hello, I need to know if AACAAUCUAUCUGAGGAUAUCAUUAAAUAAACAUGAGGAUCACCCAUGUGCAGGAAAACUGCAUAUGAGAAGGCAGAUAGAUUGA [salish99_ss2_r3_029] (puzzle: Same State 2) has measured apparent KD of MS2 coat protein not below 100 nM. Thanks! FALSE

Hello, I need to know if AGUCCAGCCUGAGCUGGACAAAAGUAUGUACAUGAGGAUCACCCAUGUCAUGUACAAGCUUUUUGCUCGUUUUAAUA [Zipper 49 - 17] (puzzle: Sensor for hsa-mir-208a) has measured apparent KD of MS2 coat protein not below 100 nM. Thanks! TRUE
